Consider the following molecules and their measured growth inhibition readings.
assay: NCI Yeast Anticancer Drug Screen. Data for the bub3 strain (AID 167); settings: S. cerevisiae bub3 mutant strain, at 50.0 µM, hits give high values
This is part of a sample that, as a whole, favours compounds with a hit. Of some 79,000 tested, about 15% had one in any assay. Where a SMILES comes first, the peptide text is derived from it. [ ]: non-standard residue; d: D form. The star is where a group is joined. Cbz = O=C(OCc1ccccc1)*; Aib = CC(C)(N)C(=O)O

{"molecule": "NCCS/C=C/C(=O)Oc1ccc(Br)cc1", "growth inhibition, %": -9.9}
{"molecule": "CCCCCCCCCCCc1noc2c1C(=O)C(O)CC2 (centres undefined)", "growth inhibition, %": -69}
{"molecule": "CN(C)S(=O)(=O)Oc1ccccc1N", "growth inhibition, %": -5.15}
{"molecule": "CNC1C(CO)OC(n2cnc3c(=O)[nH]cnc32)C1O (centres undefined)", "growth inhibition, %": -9.2}
{"molecule": "Cc1cc(N)ccc1N=Nc1ccc(S(=O)(=O)CCOS(=O)(=O)O)cc1", "growth inhibition, %": -37.1}
{"molecule": "Cc1cccc(C)c1N=O", "growth inhibition, %": 1.15}
{"molecule": "O=c1cc(-c2ccccc2)[nH]c2[nH]n(-c3ccccc3)c(=O)c12", "growth inhibition, %": -9.55}
{"molecule": "CSc1cc(C)c(O)c(CO)c1", "growth inhibition, %": 12.7}
{"molecule": "CC(C)(NC(=O)C(C)(C)NC(=O)OCc1ccccc1)C(=O)O (Cbz-[Aib]-[Aib]-OH)", "growth inhibition, %": 0.25}
{"molecule": "COc1ccc(C2C(N)=NCC2c2ccccn2)cc1 (centres undefined)", "growth inhibition, %": -9.55}
{"molecule": "C=C(C(C)C)C1CC1", "growth inhibition, %": -2.6}
{"molecule": "CCOc1ncc(C(O)c2ccco2)c(OCC)n1 (centres undefined)", "growth inhibition, %": 3.15}
{"molecule": "COC(=O)NN1C(C)=C(C(=O)OC)C2(C#N)C(C(=O)OC)=C(C)N(NC(=O)OC)C12N (centres undefined)", "growth inhibition, %": 10.2}
{"molecule": "CC1OC(C)(CCc2ccccc2)OC1C (centres undefined)", "growth inhibition, %": -21.6}
{"molecule": "O=C(OC1CCCC1)c1ccccc1", "growth inhibition, %": -10.2}
{"molecule": "CO[C@H](C)[C@@](O)(C(=O)OCC1=CCN2CCC[C@@H]12)C(C)C", "growth inhibition, %": 4.5}
{"molecule": "CN(C)CC(CN(C)C)C(=O)/C=C/c1ccc(O)cc1", "growth inhibition, %": 22.4}
{"molecule": "COC(=O)c1cc(C(=O)OC)c(C/C(=N/NC(=O)C[N+](C)(C)C)C(=O)Nc2cccc(C(F)(F)F)c2)nc1C/C(=N/NC(=O)C[N+](C)(C)C)C(=O)Nc1cccc(C(F)(F)F)c1", "growth inhibition, %": 11.4}
{"molecule": "Fc1ccc(C(c2ccc(F)cc2)C(F)(F)F)cc1", "growth inhibition, %": 13.7}
{"molecule": "C/C(=N\\N=C(N)N)C(CN(CC(C)C)CC(C)C)C(=O)Nc1ccc(C)cc1C (centres undefined)", "growth inhibition, %": -3.85}
{"molecule": "CC(=O)Oc1ccc2ccccc2c1CN(C(C)=O)c1ccc(C)cc1", "growth inhibition, %": 1.7}
{"molecule": "O=c1/c(=C\\c2ccccc2Cl)sc2n1CCN=2", "growth inhibition, %": 11.3}
{"molecule": "COC(=O)C1CCC(=O)N1C(c1ccc(OC)cc1)c1ccc2c(c1)OCO2 (centres undefined)", "growth inhibition, %": 31.5}
{"molecule": "c1ccc(CN2CCC(N3CCCC3)CC2)cc1", "growth inhibition, %": -23.3}

---

experiment: NCI Yeast Anticancer Drug Screen. Data for the bub3 strain (AID 167); details: S. cerevisiae bub3 mutant strain, at 50.0 µM, hits give high values
About 79,000 compounds went through this panel and 15% of them were active in at least one assay; those are over-represented in the sample as a whole.
outcome.measure: growth inhibition (%)

{"molecule": "CCC1([N+](=O)[O-])COC2(CCCCC2)OC1", "reported.measurement": 13.6}
{"molecule": "Cc1cc2ccccc2c[n+]1CC(O)CBr (centres undefined)", "reported.measurement": -11.4}
{"molecule": "CC(C)(C)C(O)CC(O)(C(F)(F)F)C(F)(F)F (centres undefined)", "reported.measurement": -5.9}
{"molecule": "COC1OC(COS(C)(=O)=O)C2OC(C)(C)OC12 (centres undefined)", "reported.measurement": -9.3}
{"molecule": "Cc1ccc(/C(O)=C/C(=O)C(=O)NC23CC4CC(CC(C4)C2)C3)cc1", "reported.measurement": 15.8}
{"molecule": "CC/C(=C(\\CC)c1ccc(OC2C=CCCC2)cc1)c1ccc(OC2C=CCCC2)cc1 (centres undefined)", "reported.measurement": -13.8}
{"molecule": "CN1CCc2c1nc(-c1ccc([N+](=O)[O-])cc1)c1c2N(C)CC1", "reported.measurement": 10.8}
{"molecule": "CCCC(CCc1ccccc1)C(=O)NC(N)=O (centres undefined)", "reported.measurement": 42.7}
{"molecule": "O=C(O)/C=C1/CCC(=O)O1", "reported.measurement": 20.1}
{"molecule": "COc1ccc(/C=C2\\Oc3cc(OC(C)=O)ccc3C2=O)cc1", "reported.measurement": -14.6}
{"molecule": "CCOC(=O)CC1NC(=O)CNC1=O (centres undefined)", "reported.measurement": -1.65}
{"molecule": "Cc1ccc(C(=O)/C=C\\c2ccc(Cl)c(Cl)c2)cc1", "reported.measurement": 35.7}
{"molecule": "CC[N+](C)(CC)CCl", "reported.measurement": 7.6}
{"molecule": "O=c1cc(-c2ccc3c(c2)OCO3)oc2ccccc12", "reported.measurement": -5.25}
{"molecule": "COC(=O)/C(C)=C/C=C/C(OC)C(OC(N)=O)/C(C)=C/C(C)C(O)C(CC(C)CC1=C(OC)C(=O)C=C(N)C1=O)OC (centres undefined)", "reported.measurement": 2.85}
{"molecule": "O=S(=O)(Cc1cccs1)c1ncc(Br)cn1", "reported.measurement": 11.8}
{"molecule": "CCCCCCCCCCCCCCCOc1ccc2ccccc2c1", "reported.measurement": -7.05}
{"molecule": "O=C(CSCC(=O)c1ccc([N+](=O)[O-])cc1)c1ccc([N+](=O)[O-])cc1", "reported.measurement": -20.1}
{"molecule": "O=C(Oc1ccccc1OC(=O)c1ccc(Cl)cc1)c1ccc(Cl)cc1", "reported.measurement": -2.65}
{"molecule": "Cc1ccc(Cl)cc1NC(=O)/C=C/c1ccccc1", "reported.measurement": 10.5}
{"molecule": "O=C1c2ccccc2C(=O)c2cc(Br)ccc21", "reported.measurement": -16.2}
{"molecule": "Cc1cccc(N2CC3CC4C=CC3(C2)O4)c1 (centres undefined)", "reported.measurement": 22.1}
{"molecule": "c1ccc(SCN(CSc2ccccc2)c2ccccc2)cc1", "reported.measurement": 22.1}
{"molecule": "O=C(CC(=O)C1CCOC1=O)C(=O)Nc1cccc(Cl)c1 (centres undefined)", "reported.measurement": -12}
{"molecule": "O=c1c(O)c(-c2cccnc2)oc2ccc(Cl)cc12", "reported.measurement": 16.7}
{"molecule": "ONC1=Nc2ccccc2C(=S)N2CSCC12 (centres undefined)", "reported.measurement": -21.6}
{"molecule": "Cc1cc(C)c(SSc2c(C)cc(C)cc2C)c(C)c1", "reported.measurement": 7.6}
{"molecule": "NNCCSC1CCCCC1", "reported.measurement": -17}
{"molecule": "CC(C)(C(=O)O)c1ccccc1C(=O)c1ccccc1", "reported.measurement": -0.75}
{"molecule": "COC1/C=C\\C=C(/C)C(=O)Nc2cc3nc4cccc(Br)c4oc-3c(c2=O)CC(C)CC(OC)C(O)C(C)/C=C(\\C)C1OC(N)=O (centres undefined)", "reported.measurement": 44.1}
{"molecule": "CCCCCCCCC1CO1 (centres undefined)", "reported.measurement": -3.95}
{"molecule": "Clc1ccccc1CSc1cnnc(Cl)c1SCc1ccccc1Cl", "reported.measurement": 5.2}
{"molecule": "CCNC(=O)C(C(=O)OC)c1ccccc1 (centres undefined)", "reported.measurement": 30.8}
{"molecule": "COC12OCCN(C)C1=CC(=O)C1=NNC(C)C12 (centres undefined)", "reported.measurement": -11.8}
{"molecule": "CN(C)c1ccc(C(=O)c2ccc([N+](=O)[O-])cc2)cc1", "reported.measurement": -4.95}
{"molecule": "O=S(=O)(c1ccccc1)n1c2c(c3ccccc31)Cc1ccccc1-2", "reported.measurement": -2.1}
{"molecule": "COc1ccc(COC(=O)Nc2cccc(Cl)c2)cc1OC", "reported.measurement": 30.8}
{"molecule": "CCCc1c(O)ccc(C)c1C", "reported.measurement": -7.35}
{"molecule": "CCC(C1=CCCCC1)c1nc2c([nH]1)c(=O)n(C)c(=O)n2C (centres undefined)", "reported.measurement": 17.6}
{"molecule": "S=c1[nH]c2ccccc2n1CCc1ccncc1", "reported.measurement": 1.05}
{"molecule": "O=[N+]([O-])c1ccc2oc(=Nc3ccccc3)c(Nc3ccccc3)nc2c1", "reported.measurement": 6.75}
{"molecule": "C/C(CC(=O)CCC(=O)Nc1cccc(C(F)(F)F)c1)=N\\NC(=O)NN", "reported.measurement": -13.9}
{"molecule": "CCO/C([O-])=C(\\C=N\\S(=O)(=O)c1ccc(C)cc1)[n+]1ccccc1", "reported.measurement": -3.85}
{"molecule": "CC(=O)CC(=O)NCCNC(=O)CC(C)=O", "reported.measurement": -4.55}
{"molecule": "CCOC(=O)C(C)c1nc2cc(F)c(F)cc2[nH]c1=O (centres undefined)", "reported.measurement": 4.1}
{"molecule": "COC(=O)CCc1ccc(CCC(=O)OC)cc1", "reported.measurement": -11.2}
{"molecule": "CCCCCC(CN(C)C)C(=O)CC(SCC)c1ccc(Cl)c(Cl)c1 (centres undefined)", "reported.measurement": 99.2}
{"molecule": "Nc1nc(Cl)cc(NCCCNc2cc(Cl)nc(N)n2)n1", "reported.measurement": 3.65}
{"molecule": "N#CSCC(Cl)=CCl (mixture of isomers)", "reported.measurement": 0.5}
